- System: HepG2
- EXPERIMENT: GSK_TCMDC: Percent inhibition of human HepG2 cell line. Test compounds present at 10uM.
- Format: functional
Hi there, I'd appreciate the recorded Inhibition for every entry that follows.
One number for each entry, in %.

CCCc1cc(C(=O)N[C@@H](Cc2ccccc2)[C@H](O)CNC(C)(C)c2cccc(OC)c2)c(F)c(N2CCCC2=O)c1.O=CO: 7
Cc1cccc(NC(=O)Nc2cccc(-c3ccc(-c4nc5cc(C(F)(F)F)ccc5[nH]4)cc3)c2)c1: 44
CCCCCCc1cnc2nc(N)nc(N)c2c1C: 67
N#Cc1ccc(-c2ccc(C(=O)NCCCCN3CCC(c4cn(CCCO)c5ccccc45)CC3)cc2)cc1: 31
CC(=O)Nc1ccc(C(=O)Nc2cccc(-c3ccc(-c4nc5ccccc5[nH]4)s3)c2)cn1: 9
O=C(O)C(F)(F)F.O=S(=O)(NCCN1CCCC1)c1cccc(-c2ccc(CNCc3ccsc3)cc2)c1: 33
CCN(CC)CCCC(C)Nc1c2cc(OC)ccc2nc2cc(Cl)c([N+](=O)[O-])cc12 (centres undefined): 12
CC(C)(O)CC(C)(C)c1cc(Cl)ccc1O: 5

Here is another compound to look at.
Query (compound): "COc1ccc(Nc2nccc(-c3c(-c4cccc(NC(=O)c5c(F)cccc5F)c4)nn4ccccc34)n2)cc1Cl" ; field requested: Inhibition
61
